Parameter Number of cells: see the listing below.
tested on: alternative splicing of a specific gene (GFP/RFP reporter); test: Compound screen with GFP/RFP alternative splicing reporter; type: cell-based; settings: 50 ng/mL
Response field accepts a number only; no unit should be typed.

COc1ncnc(NS(=O)(=O)c2ccc(N)cc2)c1OC (racemic)	2876

Number of cells of CCOC(=O)C1=C(C)NC(C)=C(C(=O)OC)C1c1cccc(Cl)c1Cl (stereo not drawn) on alternative splicing of a specific gene (GFP/RFP reporter)?
116

Item Clc1ccc(C(Cn2ccnc2)OCc2csc3c(Cl)cccc23)c(Cl)c1 (racemic) with alternative splicing of a specific gene (GFP/RFP reporter) - Number of cells?
1863

====

Listing of recorded Number of cells by entry.
system: alternative splicing of a specific gene (GFP/RFP reporter); assay: Compound screen with GFP/RFP alternative splicing reporter; assay type: cell-based
Structures can show the parent of a compound that is named as a salt.
// keep it numeric: no unit symbol after the value

Some solved entries appear below for comparison.
CCC(NC(C)C)C(O)c1ccc(O)c2[nH]c(=O)ccc12 (stereo not drawn) [Procaterol hcl]	4151
C=C1/C(=C\C=C2/CCC[C@]3(C)[C@@H]([C@H](C)CCCC(C)C)CC[C@@H]23)C[C@@H](O)C[C@@H]1O (racemic) [Alfacalcidol]	861
CC(=O)O[C@@]12CO[C@@H]1C[C@H](O)[C@@]1(C)C(=O)[C@H](O)C3=C(C)[C@@H](OC(=O)[C@H](O)[C@@H](NC(=O)OC(C)(C)C)c4ccccc4)C[C@@](O)([C@@H](OC(=O)c4ccccc4)[C@H]21)C3(C)C [Docetaxil]	1194
COc1cc2nc(N3CCN(C(=O)c4ccco4)CC3)nc(N)c2cc1OC [Prazosin HCl]	2109
CC1=C(/C=C/C(C)=C/C=C/C(C)=C/C(=O)O)C(C)(C)CCC1 [Retinoic acid]	2697

Could you now look at the following compound, please?
I would be grateful if you could share the reported Number of cells for C[C@@H](O[C@H]1OCCN(Cc2n[nH]c(=O)[nH]2)[C@H]1c1ccc(F)cc1)c1cc(C(F)(F)F)cc(C(F)(F)F)c1 (racemic) [Aprepitant] .
2165

====

Number of cells values, listed per item
tested on: alternative splicing of a specific gene (GFP/RFP reporter); experiment: Compound screen with GFP/RFP alternative splicing reporter; type: cell-based; conditions: cell count after compound at final conc.; Ctrl number of cells 4303-5627
Where a name gives a salt, the structure may show the parent alone.
No unit in the answer, only the number.

Reference set, count: 2
COc1ccnc(C[S+]([O-])c2nc3ccc(OC(F)F)cc3[nH]2)c1OC (racemic) [Pantoprazole]	3112
O=C1[O][Pt]2([NH][C@@H]3CCCC[C@H]3[NH]2)[O]C1=O [Oxaliplatin]	825

Recorded Number of cells of CCCOc1ccc2nc(NC(=O)OC)[nH]c2c1 (racemic) [Oxibendazole] , please.
786

Looking for the measured Number of cells of Cc1nc(C)c(Cl)c(O)c1Cl (racemic) [Clopidol] , can you help?
3230

Which Number of cells value is on record for COc1c(C)c2c(c(O)c1C/C=C(\C)CCC(=O)OCCN1CCOCC1)C(=O)OC2 (racemic) [Mycophenolate mofetil] ?
500

Give the measured Number of cells of N[C@@H](Cc1ccc(N(CCCl)CCCl)cc1)C(=O)O (racemic) [Melphalan] .
483

Value lookup for Number of cells; key = CC(CCc1ccc(O)cc1)NCCc1ccc(O)c(O)c1 (centres unmarked) [Dobutamine HCl]
2991

Values from patent US9273364B2
